assayedSystem: UniProtKB P29275
Sequence (P29275 whole entry): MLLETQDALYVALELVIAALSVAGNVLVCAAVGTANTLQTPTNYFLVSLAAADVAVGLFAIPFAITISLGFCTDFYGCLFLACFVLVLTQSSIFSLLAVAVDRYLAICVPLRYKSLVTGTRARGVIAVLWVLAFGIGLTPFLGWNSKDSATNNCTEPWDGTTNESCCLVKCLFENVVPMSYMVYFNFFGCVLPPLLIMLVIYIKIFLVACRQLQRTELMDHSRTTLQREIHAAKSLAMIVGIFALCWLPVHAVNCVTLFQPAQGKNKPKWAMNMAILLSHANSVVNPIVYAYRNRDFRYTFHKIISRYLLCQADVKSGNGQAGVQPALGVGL
assayProcedure: Adenosine receptor activity assay (Table 1), A2B activity
Format: biochemical
measurementSetup: read-out: Ave A2B cAMP IC50
valueType: IC50

Please fill in: IC50 reported for Cc1cc2nc(N[C@@H](C)c3cccnc3)nc(C(=O)N3CC[C@@H](CO)C3)c2s1 = < 10 nM

Query C[C@H](Nc1nc(C(=O)N2CC[C@@H](O)C2)c2sc(C(F)(F)F)cc2n1)c1cccnc1 yields IC50 of 10 to 50 nM

Documented IC50 of CNc1cc2nc(N[C@@H](C)c3ccccn3)nc(C(=O)NCCO)c2s1 : 10 to 50 nM

// sample C[C@H](Nc1nc(C(=O)N2CCN(C(=O)OC(C)(C)C)C2)c2sccc2n1)c1cccnc1 , its IC50 was > 500 nM

For reference, reported IC50 for COCCC(=O)N1CCN(C(=O)c2nc(N[C@@H](C)c3cncc(F)c3)nc3ccsc23)C1 stands at 10 to 50 nM

Data point: Cc1cc2nc(N[C@@H](C)c3cccnc3)nc(C(=O)N3CC[C@H](O)C3)c2s1 ; IC50 = < 10 nM

Value of measured IC50 for the entry O=C(c1nc(NCCc2ccccc2)nc2ccsc12)N1CCCC1 : 100 to 500 nM

Recorded IC50 (molecule CC(C)(Nc1nc(C(=O)N2CCCC2)c2sccc2n1)c1cccnc1 ): 100 to 500 nM

molecule C[C@H](Nc1nc(C(=O)N2CC(C)(O)C2)c2sccc2n1)c1ccccn1 , IC50 observed: 10 to 50 nM

response.value for COc1cccc(CCNC(=O)c2nc(N[C@@H](C)c3cncc(F)c3)nc3ccsc23)n1 (field: IC50) = < 10 nM

The recorded IC50 for C[C@H](Nc1nc(C(=O)N[C@@H]2CC[C@H](O)C2)c2sccc2n1)c1cncc(F)c1 is < 10 nM

IC50 in this record for Cc1cncc(CNC(=O)c2nc(NCc3cncc(C)c3)nc3ccsc23)c1 : > 500 nM

Recorded result, CNC1CN(C(=O)c2nc(N[C@@H](C)c3cncc(F)c3)nc3cc(C)sc23)C1 , IC50: 10 to 50 nM

Data point: O=C(c1nc(NCc2cncc(F)c2)nc2ccsc12)N1CCNC1 ; IC50 = > 500 nM

What the record says about Cc1cc2nc(N[C@@H](C)c3cccnc3)nc(C(=O)NCCN3CCOCC3)c2s1 : IC50 is 100 to 500 nM

Record summary for C[C@H](Nc1nc(C(=O)N2CC(CN(C)C(=O)CC(C)(C)C)C2)c2sccc2n1)c1cncc(F)c1 : reported IC50 = 10 to 50 nM

Recorded result, C[C@H](Nc1nc(C(=O)NC2CN(C(=O)C(C)(C)C)C2)c2sccc2n1)c1cncc(F)c1 , IC50: 100 to 500 nM

IC50 reported for this molecule C[C@H](Nc1nc(C(=O)N2CCNC2)c2sccc2n1)c1cncc(F)c1 : 10 to 50 nM

Looking up C[C@H](Nc1nc(C(=O)NCC2CCN(CCc3ccccc3)CC2)c2sccc2n1)c1ccccn1 , I see its IC50 listed as > 500 nM

Value of measured IC50 for the entry C[C@H](Nc1nc(C(=O)N2CC[C@@H](S(C)(=O)=O)C2)c2sccc2n1)c1cccnc1 : > 500 nM

# IC50 of COC[C@H]1CCN(C(=O)c2nc(N[C@@H](C)c3ccccn3)nc3ccsc23)C1 = 50 to 100 nM

Reported IC50 ( CNc1cc2nc(N[C@@H](C)c3cccnc3)nc(C(=O)N3CCC3)c2s1 ) = < 10 nM

IC50 measured on C[C@H](Nc1nc(C(=O)N2CC(F)(F)C2)c2sccc2n1)c1ccccn1 = 10 to 50 nM

IC50 reading for Cc1cc2nc(N[C@@H](C)c3cncc(F)c3)nc(C(=O)NCCC3CCN(C)CC3)c2s1 : 10 to 50 nM

Reported IC50 ( Cc1cc2nc(N[C@@H](C)c3cncc(F)c3)nc(C(=O)N3CCCC3)c2s1 ) = < 10 nM

Query C[C@H](Nc1nc(C(=O)N2CCC(C(=O)NC(C)(C)C)C2)c2sccc2n1)c1cncc(F)c1 (stereo partly drawn) yields IC50 of 10 to 50 nM

Consider Cc1cc2nc(N[C@@H](C)c3cncc(F)c3)nc(C(=O)N3CC[C@H](O)C3)c2s1 . Its measured IC50 is < 10 nM

Memo: C[C@H](Nc1nc(C(=O)N2CC[C@@H](O)C2)c2sccc2n1)c1ccccn1 , reported IC50: 10 to 50 nM

Sample CC(=O)N[C@H]1CCN(C(=O)c2nc(N[C@@H](C)c3cncc(F)c3)nc3cc(C)sc23)C1 ; IC50 observed: 10 to 50 nM

Notebook: CO[C@@H]1CCN(C(=O)c2nc(N[C@@H](C)c3cncc(F)c3)nc3cc(C)sc23)C1 , IC50 read as < 10 nM

IC50 measured on N[C@@H]1CCN(C(=O)c2nc(NCc3cncc(F)c3)nc3ccsc23)C1 = 100 to 500 nM

So, C[C@H](Nc1nc(C(=O)NC2CC2)c2sccc2n1)c1ccccn1 ? Its IC50 was < 10 nM

Documented IC50 of CNc1cc2nc(N[C@@H](C)c3cncc(F)c3)nc(C(=O)N3CCC3)c2s1 : < 10 nM

Reference source for all entries: patent US11254686B1
